assay-target: Papain (Carica papaya)
test: Primary qHTS assay for inhibitors of the protease papain (AID 1645873);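 also: papain turnover of Z-FR-AMC read as the AMC fluorescence gain over 10 min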
condition-info: papain Z-FR-AMC cleavage, AMC fluorescence; series mostly up to 49.8 µM
Results filed as inconclusive are left out. The source made the active and inactive calls. Calls follow the shape of the dose curve; as a rule, active = well fitted inhibition curve with a large enough effect; inconclusive = small, poorly fitted or top-dose-only effect; inactive = no such curve, though single readings can be large or run the other way.
// one of 1 (active), -1 (inactive), no free text

Exercise: I'd appreciate the recorded outcome for COc1cc2nc(N3CCCN(C)CC3)nc(NC3CCN(Cc4ccccc4)CC3)c2cc1OC from this test.
Solution: 1

Exercise: I'd appreciate the recorded outcome for NC(=O)c1ccc2[nH]ccc2c1 from this test.
Solution: -1

Exercise: I'd appreciate the recorded outcome for CC1=C(C(=O)O)N2C(=O)[C@@H](NC(=O)C(N)c3ccccc3)[C@H]2SC1 (stereo partly specified) from this test.
Solution: -1

Exercise: I'd appreciate the recorded outcome for Cc1ccc(S(=O)(=O)N[C@@H](Cc2ccccc2)C(=O)CCl)cc1 from this test.
Solution: -1

Exercise: I'd appreciate the recorded outcome for CCN(CC)CCn1c(=O)c(Cc2ccc(OC)cc2)nc2ccccc21 from this test.
Solution: -1

Exercise: I'd appreciate the recorded outcome for Nc1nc(N)c2nc(CNc3ccc(C(=O)NC(CCC(=O)O)C(=O)O)cc3)cnc2n1 (stereo unspecified) from this test.
Solution: 1

Exercise: I'd appreciate the recorded outcome for CC1CC2C3CCC4=CC(=O)C=C[C@]4(C)[C@@]3(F)[C@@H](O)C[C@]2(C)[C@@]1(O)C(=O)CO (stereo partly specified) from this test.
Solution: -1

Exercise: I'd appreciate the recorded outcome for OCc1ccc(-c2nn(Cc3ccccc3)c3ccccc23)o1 from this test.
Solution: 1

Exercise: I'd appreciate the recorded outcome for CCN1CCCC1CNC(=O)c1cc(S(N)(=O)=O)ccc1OC (stereo unspecified) from this test.
Solution: -1

Exercise: I'd appreciate the recorded outcome for CCCCS(=N)(=O)CCC(N)C(=O)O (stereo unspecified) from this test.
Solution: -1

Exercise: I'd appreciate the recorded outcome for O=C(O)C1CCCN(CCC=C(c2ccccc2)c2ccccc2)C1 (stereo unspecified) from this test.
Solution: -1

---

Test system: CAOV3
test: Primary qHTS to identify gynecologic anti-cancer compounds using libraries of approved drugs and bioactive compounds (AID 1345084); also: % is scaled to controls: 0 for no effect and ±100 for the full control effect; nearly all actives have a fitted effect of over 55% in size
condition-info: Gynecologic cancer cell panel viability, ATPlite luminescence, 48 h; series mostly up to 57.5 µM
Results filed as inconclusive are left out. Activity calls are given as the source filed them. The call rests on the fitted dose curve; in most records, active means well fitted cell-killing curve with a large enough effect; inconclusive means small, poorly fitted or top-dose-only effect, or effect the other way; inactive means flat fitted curve, though single readings scatter.
property-name: outcome

| compound | measured |
| --- | --- |
| CC(C)(C)NC(=O)[C@H]1CC[C@H]2[C@@H]3CC[C@H]4NC(=O)C=C[C@]4(C)[C@H]3CC[C@]12C | inactive |
| CCOC(=O)c1ccc(C#Cc2ccc3c(c2)C(C)(C)CCS3)nc1 | inactive |
| Cc1cc(NS(=O)(=O)c2ccc(N)cc2)no1 | inactive |
| S=P(N1CC1)(N1CC1)N1CC1 | inactive |
| C[C@@H]1C[C@H]2[C@@H]3CCC4=CC(=O)C=C[C@]4(C)[C@@]3(Cl)[C@@H](O)C[C@]2(C)[C@@]1(OC(=O)c1ccco1)C(=O)CCl | inactive |
| O=S(=O)(c1cccc2cnccc12)N1CCCNCC1 | inactive |
| CCCN[C@H]1CCc2nc(N)sc2C1 | inactive |
| CC1=NN(c2ccccc2)C(=O)C1 | inactive |

Exercise: Using known records, supply outcome for COc1cnc(NS(=O)(=O)c2ccc(N)cc2)nc1
Solution: inactive

Exercise: Using known records, supply outcome for O=C(O)c1cccnc1
Solution: inactive

Exercise: Using known records, supply outcome for CN(Cc1cc(Br)cc(Br)c1N)C1CCCCC1
Solution: inactive

Exercise: Using known records, supply outcome for Cc1onc(-c2ccccc2Cl)c1C(=O)N[C@@H]1C(=O)N2[C@@H]1SC(C)(C)[C@@H]2C(=O)O
Solution: inactive

Exercise: Using known records, supply outcome for O=S(=O)(O)CCS
Solution: inactive

Exercise: Using known records, supply outcome for COc1nc(N)nc2c1ncn2[C@@H]1O[C@H](CO)[C@@H](O)[C@@H]1O
Solution: inactive

Exercise: Using known records, supply outcome for CC(=O)Oc1ccccc1C(=O)Nc1ncc([N+](=O)[O-])s1
Solution: inactive

Exercise: Using known records, supply outcome for CCCc1cc(C(N)=S)ccn1
Solution: inactive

---

assay-target: ATP-dependent 6-phosphofructokinase (Trypanosoma brucei brucei) (UniProt O15648)
Sequence (O15648 whole entry, looked up): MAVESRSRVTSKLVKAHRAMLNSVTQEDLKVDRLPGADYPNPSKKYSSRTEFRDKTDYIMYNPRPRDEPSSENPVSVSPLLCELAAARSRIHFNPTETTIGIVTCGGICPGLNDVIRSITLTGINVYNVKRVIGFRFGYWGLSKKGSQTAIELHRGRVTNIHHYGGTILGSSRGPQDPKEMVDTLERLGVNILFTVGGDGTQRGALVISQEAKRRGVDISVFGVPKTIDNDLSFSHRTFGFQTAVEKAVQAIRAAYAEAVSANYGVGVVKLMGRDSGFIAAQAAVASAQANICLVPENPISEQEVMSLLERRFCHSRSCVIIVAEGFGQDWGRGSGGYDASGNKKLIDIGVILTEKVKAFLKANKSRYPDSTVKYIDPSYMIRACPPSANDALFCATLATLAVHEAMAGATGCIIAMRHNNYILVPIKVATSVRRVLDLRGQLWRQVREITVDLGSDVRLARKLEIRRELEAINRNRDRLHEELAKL
test: qHTS Assay to Find Inhibitors of T. brucei phosphofructokinase: hit validation (AID 492961)
condition-info: T. brucei PFK, ADP-Glo luminescence; series mostly up to 51.4 µM
Records with an inconclusive call do not appear. Activity calls are given as the source filed them. Calls follow the shape of the dose curve; as a rule, active = well fitted inhibition curve with a large enough effect; inconclusive = small, poorly fitted or top-dose-only effect, or effect the other way; inactive = flat fitted curve, though single readings scatter.
// one of active, inactive, no free text

Exercise: I'd appreciate the recorded outcome for COc1ccc(-c2ccc3cc(C(=O)O)ccc3c2)cc1C12CC3CC(CC(C3)C1)C2 from this test.
Solution: active

Exercise: I'd appreciate the recorded outcome for CN1CCN(c2c(F)cc3c(=O)c(C(=O)O)cn(CCF)c3c2F)CC1 from this test.
Solution: inactive

Exercise: I'd appreciate the recorded outcome for C#CCN[C@@H]1CCc2ccccc21 from this test.
Solution: inactive

Exercise: I'd appreciate the recorded outcome for CCOC(=O)c1ccc(OC(=O)CCCCCN=C(N)N)cc1 from this test.
Solution: inactive

Exercise: I'd appreciate the recorded outcome for CCCc1cc(C(N)=S)ccn1 from this test.
Solution: inactive

Exercise: I'd appreciate the recorded outcome for COc1cccc(N(C)C(=S)Oc2ccc3c(c2)CCCC3)n1 from this test.
Solution: inactive

Exercise: I'd appreciate the recorded outcome for Oc1c(Cl)cc(Cl)c2cccnc12 from this test.
Solution: inactive

Exercise: I'd appreciate the recorded outcome for CCOC(=O)c1ccc(C#Cc2ccc3c(c2)C(C)(C)CCS3)nc1 from this test.
Solution: inactive

Exercise: I'd appreciate the recorded outcome for O=P(O)(O)C(O)(Cc1cccnc1)P(=O)(O)O from this test.
Solution: inactive

Exercise: I'd appreciate the recorded outcome for COC(=O)Nc1nc2ccc(C(=O)c3ccccc3)cc2[nH]1 from this test.
Solution: inactive

Exercise: I'd appreciate the recorded outcome for OC(Cn1cncn1)(Cn1cncn1)c1ccc(F)cc1F from this test.
Solution: inactive

Exercise: I'd appreciate the recorded outcome for CCCN[C@H]1CCc2nc(N)sc2C1 from this test.
Solution: inactive

---

test: Drug repurposing screens with cells derived from glioblastoma tumor samples (AID 1345199); also: % is scaled to controls: 0 for no effect and ±100 for the full control effect; nearly all actives have a fitted effect of over 40% in size
condition-info: GBM patient neurospheres viability, ATP luminescence, 48 h; at 46 µM (top of the series); tumour line A
Records with an inconclusive call do not appear.
So I've got a bunch of compounds here, and I need their activity, negative = cell killing values.
Give your result in % as a bare value.

Exercise: Using known records, supply activity, negative = cell killing for Cc1nnc(C(=O)NC(C)(C)c2nc(C(=O)NCc3ccc(F)cc3)c(O)c(=O)n2C)o1
Solution: -16.1

Exercise: Using known records, supply activity, negative = cell killing for Cc1noc(NS(=O)(=O)c2ccc(N)cc2)c1C
Solution: -16.5

Exercise: Using known records, supply activity, negative = cell killing for C#CCN[C@@H]1CCc2ccccc21
Solution: -26

Exercise: Using known records, supply activity, negative = cell killing for COC(c1ccccc1)(c1ccccc1)[C@H](Oc1nc(C)cc(C)n1)C(=O)O
Solution: -16.8

Exercise: Using known records, supply activity, negative = cell killing for CNS(=O)(=O)Cc1ccc2[nH]cc(CCN(C)C)c2c1
Solution: -14

Exercise: Using known records, supply activity, negative = cell killing for CC(=O)CC(c1ccccc1)c1c(O)c2ccccc2oc1=O (stereo not given)
Solution: -22

Exercise: Using known records, supply activity, negative = cell killing for CNC1CCCN(c2c(F)cc3c(=O)c(C(=O)O)cn(C4CC4)c3c2OC)C1 (stereo not given)
Solution: -37.3

Exercise: Using known records, supply activity, negative = cell killing for Cc1ccnc2c1NC(=O)c1cccnc1N2C1CC1
Solution: -21.5

Exercise: Using known records, supply activity, negative = cell killing for Cc1cc(NS(=O)(=O)c2ccc(N)cc2)no1
Solution: -6.57

Exercise: Using known records, supply activity, negative = cell killing for CC(C(=O)O)c1ccc2c(c1)CC(=O)c1ccccc1S2 (stereo not given)
Solution: -9.77

Exercise: Using known records, supply activity, negative = cell killing for Cc1ncc([N+](=O)[O-])n1CCO
Solution: -19.2

Exercise: Using known records, supply activity, negative = cell killing for CCOCC(O)COc1ccc(NC(=O)CC[S+](C)C)cc1 (stereo not given)
Solution: -26.7

Exercise: Using known records, supply activity, negative = cell killing for C[C@@H]1CN(c2c(F)c(N)c3c(=O)c(C(=O)O)cn(C4CC4)c3c2F)C[C@H](C)N1
Solution: -8

Exercise: Using known records, supply activity, negative = cell killing for COc1nc(N)nc2c1ncn2[C@@H]1O[C@H](CO)[C@@H](O)[C@@H]1O
Solution: -10

Exercise: Using known records, supply activity, negative = cell killing for CN1CCN(c2c(F)cc3c(=O)c(C(=O)O)cn(CCF)c3c2F)CC1
Solution: -15.5

Exercise: Using known records, supply activity, negative = cell killing for O=S(=O)(O)CCS
Solution: -21.8

Exercise: Using known records, supply activity, negative = cell killing for Cn1nnc2c(C(N)=O)ncn2c1=O
Solution: -21.4

Exercise: Using known records, supply activity, negative = cell killing for Cc1oc(=O)oc1CN1CCN(c2cc3c(cc2F)c(=O)c(C(=O)O)c2n3C(C)S2)CC1 (stereo not given)
Solution: -22.8

Exercise: Using known records, supply activity, negative = cell killing for O=C(N[C@H](CO)[C@H](O)c1ccc([N+](=O)[O-])cc1)C(Cl)Cl
Solution: -46.2

Exercise: Using known records, supply activity, negative = cell killing for O=C(O)c1cc(=O)[nH]c(=O)[nH]1
Solution: -24.7

Exercise: Using known records, supply activity, negative = cell killing for O=c1cc(O)c(Cl)c[nH]1
Solution: -15.8

Exercise: Using known records, supply activity, negative = cell killing for CC(C)OC(=O)OCOP(=O)(CO[C@H](C)Cn1cnc2c(N)ncnc21)OCOC(=O)OC(C)C
Solution: -9.04

Exercise: Using known records, supply activity, negative = cell killing for CCCN[C@H]1CCc2nc(N)sc2C1
Solution: -26.8

Exercise: Using known records, supply activity, negative = cell killing for CC(C)C1CCC(C(=O)N[C@H](Cc2ccccc2)C(=O)O)CC1 (stereo not given in full)
Solution: -15.4

Exercise: Using known records, supply activity, negative = cell killing for CO[C@@]12[C@H](COC(N)=O)C3=C(C(=O)C(C)=C(N)C3=O)N1C[C@@H]1N[C@@H]12
Solution: -9.83
